Provenance of the data: paper PMC7674511

system_name: LC3B-I (UniProt Q9GZQ8 1-120)
test_details: fluorescence polarisation; fluorescence anisotropy; peptide at 1 μM, LC3B-I or Pro-LC3B added from 0 to 50 μM; Kd by nonlinear curve fitting; three independent experiments
test_conditions: both partners purified
No end group written: not given here.
outcome_measure: Kd (µM)
Numeric only. Scale: µM

QUERY: May I ask what Kd has been recorded for VHDRNANSYVMVGTFNLPSD (also: FITC label, position not given here, BAG6, 20-aa peptide encompassing the LIR1 motif (132-135 YVMV), residues 124-143; it has the same name there; also called wild-type BAG6 LIR-1 peptide; source: synthetic peptide) [BAG6 LIR1 peptide (residues 124-143)] ?
RESULT: 22.2
